Data provenance: the supplement of paper PMC9170038

- Test system: MS2 coat protein
- Protocol text: apparent KD of MS2 coat protein, switch ON state; designed switch direction (-1 OFF switch, 1 ON switch): 1; higher = weaker reporter binding
- Condition context: FMN input: 0 or 200 uM; Eterna round: R93 (includes R88 designs)
Rule: apparent KD of MS2 coat protein of 0.04 µM or more gives fulfilled; anything lower gives not fulfilled.

Macromolecule sequence: GAAAAACAUGAGGAUCACCCAUGUAGAAAUAUGGGAGGAUAUACAAAGACGAGAGUCAAAGUAGAAGGCCUAAAAG [Mat - Same State 1 - Eli mod - D9]
Group label: not fulfilled
//
Macromolecule sequence: AAUACACAUGGUCAGGAUAUCGCAGCUAGGACAUGAGGAUCACCCAUGUCGCACGUAACCGUAACCGAGAAGGGACAGGGUGACC [JR_SS002_Sub409]
Group label: not fulfilled
//
Macromolecule sequence: AACAACAAUAUGAAGGAUAUCCACAACAAGACAUGAGGAUCACCCAUGUAAACUUAGAACAUACAGGAGAAGGUCAAGGGUGAAU [JR_SS002_Sub1204]
Group label: fulfilled
//
Macromolecule sequence: GGGAGACAUGAGGAUCACCCAUGUGAGAAGAGGCGAGGAUAUCGAAAGAAAGAAGAGAAACGAGAAGGCGCGAGAA [salish99-SS1-049]
Group label: not fulfilled
//
Macromolecule sequence: AAUACACAUGGUCAGGAUAUCGCAGCUAGGACAUGAGGAUCACCCAUGUCGCAUGUAACUGUAACCGAGAAGGGACAGGGUGAUC [JR_SS002_Sub411]
Group label: fulfilled
//
Macromolecule sequence: UAGAGACAUGAGGAUCACCCAUGUAGGAUUAUGGGAGGAUAUACAAAGACGAGAGUCAGAGUAGAAGGCCUAGGAA [salish99-ss1-133(!)]
Group label: not fulfilled
//
Macromolecule sequence: UAGAGACAUGAGGAUCACCCAUGUAGGAUUAUGGGAGGAUAUACAAAGACGAGAGUCAGAGUAGAAGGCCUAGGAG [salish99-ss1-135(!)]
Group label: not fulfilled
//
Macromolecule sequence: CGUGAACAUGAGGAUCACCCAUGUGAAAAACAUAGAGGAUAUGUCGCGUGAGUGCAAAAGACAGAAGGCUAUCGUG [Mod 4 of Round 1 starryjess' Mod pf Nando]
Group label: not fulfilled
//
Macromolecule sequence: GCCUAACAUGAGGAUCACCCAUGUAGUGGGUUGUUAGGAUAUGGACCGCAAAACACGGUACCAGAAGGAAUAGAAA [Tiquleraat]
Group label: fulfilled
//
Macromolecule sequence: UAAAAUAAAACAUAGGAUAUCAAAAUAAAAACAUGAGGAUCACCCAUGUGAAAACAUGAGAAGGAUGAGAAGGAAAAUAAAAUAA [Meechl SS2 R2 m1]
Group label: not fulfilled
//
Macromolecule sequence: AAAAGACAUGAGGAUCACCCAUGUAAAAACGUAGGAGGAUAUGUCUUGAAAAAAGACUUGACAGAAGGCCUGUGUC [SS1 - 53]
Group label: not fulfilled

---

- Test system: MS2 coat protein
- Protocol text: apparent KD of MS2 coat protein; designed switch direction (-1 OFF switch, 1 ON switch): 1; higher = weaker reporter binding
- Condition context: input ligand: none
Result type: apparent KD of MS2 coat protein (nM)

Macromolecule sequence: AUUUUUAAUGCAGGAUAUGAUUAACAUGAGGAUCACCCAUGUGGUGUUGUGAGUAAGGAGAGUGAUCAGAAGGGCAUUUUUUCU [JMF's solution 88] (Eterna round: R96, puzzle: Same State NG 2)
Observed: 500

Macromolecule sequence: GCACUCCUAGGAGCUGCGACAUGAGGAUCACCCAUGUAAUCACAGGAUAUGCAAUUCUGAAUUUUGCAGAAGGGUGAUAGGAAA [Zausorbi] (Eterna round: R96, puzzle: Same State NG 3)
Observed: 263

Macromolecule sequence: CUGAGCGAUCUAGGAUAUCACGUCGAUUAGACGUGAGAAGGAGAUCAUAACAUGAGGAUCACCCAUGUAUUACAUGAAGCUCAG [SSNG1/6-A2] (Eterna round: R96, puzzle: Same State NG 1)
Observed: 19.6

Macromolecule sequence: GGUGCGAAUAAAGCCUACAUGAGGAUCACCCAUGUAUGUAGGCAGGAUAUCGUUUGCUUUGCAAACGAGAAGGGCUGUCGCACC [JL SSNG3 1.16] (Eterna round: R96, puzzle: Same State NG 3)
Observed: 70.7

Macromolecule sequence: CUUUUUAGUGCAGGAUAUGAUCAACAUGAGGAUCACCCAUGUGGCGUUGUGAGUAGGGAGAGUGAUCAGAAGGGCGUCUCCUCG [SS-NG2-LRO10] (Eterna round: R96, puzzle: Same State NG 2)
Observed: 39.2
